The following binders are listed with their measured pKd values.
molecular target: DLG4_1, P78352; test: holdup assay; design: key: below the threshold = too weak to quantify, mostly under pKd 3.1 to 4; conditions: plain residues with an end cap or a label only (N-terminal biotin on a linker: ahx)
Sequence (P78352 62-152): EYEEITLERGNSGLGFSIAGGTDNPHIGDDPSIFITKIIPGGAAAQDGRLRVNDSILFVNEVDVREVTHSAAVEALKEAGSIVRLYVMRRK
REPORTED ENDPOINT: pKd

> print(dat)
                                binder   val
1        RRRKRKRTYL [HPV49-L2, P36762]  3.62
2            TVICWPGSLV [LNX2, Q8N448]  4.44
3  LSDPSVSTVV [GRIN1, Q05586;Q05586-2]   4.1
4            GYDWGPATDL [TJP3, O95049]  3.53
